test: Selectivity index, ratio of CC50 for cytotoxicity against C57BL/6 mouse bone marrow monocytes to IC50 for anti-osteoclastogensis in C57BL/6 mouse bone marrow monocytes assessed as inhibition of RANKL/M-CSF induced osteoclastogenesis; assay type: cell-based, Monocyte; settings: read-out: Ratio CC50/IC50
// reported selectivity ratio for each item listed

C=C1CC[C@@H]2OC(=O)C=C(C[C@]3(C)CC(=O)O[C@H]3CO)C(=O)[C@]2(C)[C@@H]1C: > 7

# evaluate next
So for C=C[C@@]1(C)CC(=O)O[C@H]1C1=CC[C@H]2C(C)(C)CC[C@H](O)[C@]2(C)C1=O , the logged selectivity ratio turned out to be > 10

From: ChEMBL document CHEMBL5357006
